Target: Ybr033w (UniProt P38073)
Sequence: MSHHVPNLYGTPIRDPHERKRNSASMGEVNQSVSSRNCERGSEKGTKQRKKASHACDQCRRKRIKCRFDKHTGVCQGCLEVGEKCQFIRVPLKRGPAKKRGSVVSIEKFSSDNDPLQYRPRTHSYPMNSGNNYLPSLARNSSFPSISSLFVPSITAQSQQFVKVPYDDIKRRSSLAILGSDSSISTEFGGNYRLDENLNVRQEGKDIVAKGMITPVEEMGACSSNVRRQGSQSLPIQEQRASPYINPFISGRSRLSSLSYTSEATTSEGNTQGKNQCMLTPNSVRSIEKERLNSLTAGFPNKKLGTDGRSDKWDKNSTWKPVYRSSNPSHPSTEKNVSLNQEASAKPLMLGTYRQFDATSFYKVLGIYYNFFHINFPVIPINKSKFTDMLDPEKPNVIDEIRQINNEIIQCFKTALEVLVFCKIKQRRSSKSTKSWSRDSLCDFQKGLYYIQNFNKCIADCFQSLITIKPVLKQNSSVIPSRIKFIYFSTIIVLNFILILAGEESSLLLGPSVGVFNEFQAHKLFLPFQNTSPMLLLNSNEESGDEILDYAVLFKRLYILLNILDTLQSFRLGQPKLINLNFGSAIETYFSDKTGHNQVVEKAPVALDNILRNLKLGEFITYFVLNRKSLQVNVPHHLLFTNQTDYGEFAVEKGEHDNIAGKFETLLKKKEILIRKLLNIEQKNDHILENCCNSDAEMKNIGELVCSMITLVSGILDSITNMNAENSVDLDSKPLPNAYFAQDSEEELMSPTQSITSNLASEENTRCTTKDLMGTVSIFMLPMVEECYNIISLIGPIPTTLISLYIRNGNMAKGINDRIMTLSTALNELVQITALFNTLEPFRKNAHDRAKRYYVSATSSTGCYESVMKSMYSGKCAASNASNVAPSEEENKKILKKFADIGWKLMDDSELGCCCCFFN
Test: PBM E-score (8-mer binding enrichment) (E-score (-0.5 to 0.5)); higher = stronger / more preferred TF binding
Details: protein concentration: 200 nM; construct: GST-full length
In all, about 33,000 sequences were measured (“E-score (-0.5 to 0.5)”: median about -0.012, highest 2% from about 0.29 on). For the sample, the highest values were picked, then their nearest neighbours and some sequences at random.
measurement-kind: PBM E-score
The reply should be a number, written without any unit.

Problem: // query PBM E-score value for entry "GTTCTGCA"
Result: -0.173

Problem: Which PBM E-score is reported for this sequence? "CCAAGCGA"
Result: -0.0712

Problem: Look at this sequence and give its reported PBM E-score. "AAATTGTT"
Result: 0.317

Problem: Return reported PBM E-score; argument: "GTTTGATA"
Result: 0.177

Problem: Field request: PBM E-score | item: "AAATTGTA"
Result: 0.22

Problem: Find the recorded PBM E-score belonging to "AAATTGAT" and report it.
Result: 0.336

Problem: Could you tell me which PBM E-score is on file for "GTTAAGGA" ?
Result: 0.121

Problem: Would you mind telling me what PBM E-score value was observed for "GAAAGCCA" ?
Result: -0.136

Problem: What value of PBM E-score has been recorded for this entry: "CAGTCACG"
Result: -0.248

Problem: I have this sequence here, "AAAAGACA" , and I need its recorded PBM E-score.
Result: 0.292

Problem: Recorded PBM E-score of "AAAAGCCA" , please.
Result: 0.3

Problem: For "AGCGATTG" , what is its reported PBM E-score?
Result: -0.0938

Problem: Give the measured PBM E-score of "AGAACAGG" .
Result: -0.125

Problem: Give the measured PBM E-score of "ATATTGAA" .
Result: 0.189

Problem: PBM E-score lookup needed for "GGCCTAAC" , thanks.
Result: -0.013

Problem: // query PBM E-score value for entry "AAATTGAC"
Result: 0.108

Problem: Given the sequence "AAATTGTC" , what is its reported PBM E-score?
Result: 0.192

Problem: Returns the measured PBM E-score for the input sequence. Input: "AAAAGCCC"
Result: -0.113

FYI, the data here is from the supplement of paper PMC3334620.
